Hi there, I'd appreciate the recorded GI50 for every entry that follows.
- Test system: H929 human cancer cell lines
- PROTOCOL_NOTES: Cellular viability / proliferation (Cell TiterGlo, 72 h)
- Type: cell-based
- EXPERIMENTAL_CONDITIONS: Homo sapiens, NCI-H929, 72 h, read-out: GI50 on cellular proliferation of H929 human cancer cell lines, H929 cells, 72 h, Cell TiterGlo, 10% FBS
Answer format: numeric, µM implied, no suffix.

q: Sample Cc1cc(OCCCc2c3n(c4c(-c5c(C)nn(C)c5C)c(Cl)ccc24)CCCN(c2cc(C(=O)O)cc4c2ccn4CCN(C)C)C3=O)cc(C)c1Cl — what was its GI50?
a: 9.9

q: Query (compound): Cc1cc(OCCCc2c3n(c4c(-c5c(C)nn(C)c5C)c(Cl)ccc24)[C@H](C)CN(c2cccc4c(Cl)cc(C(=O)O)nc24)C3=O)cc(C)c1Cl ; field requested: GI50
a: 0.89

q: # input compound: CCn1cc(N2C[C@@H](C)n3c(c(CCCOc4cc(C)c(Cl)c(C)c4)c4ccc(Cl)c(-c5c(C)nn(C)c5C)c43)C2=O)c2cc(C(=O)O)ccc21 ; wanted: its GI50
a: 0.92

q: Consider the compound shown here: Cc1cc(OCCCc2c3n(c4c(-c5c(C)nn(C)c5C)c(Cl)ccc24)[C@H](C)CN(c2cc(NC(=O)CN4CCCCC4)cc4c(C(=O)O)cn(C)c24)C3=O)cc(C)c1Cl What is its recorded GI50?
a: 1.3

q: What does the record list as GI50 for Cc1cc(OCCCc2c3n(c4c(-c5c(C)nn(CC6CCOCC6)c5C)c(Cl)ccc24)[C@H](C)CN(c2cn(C)c4ccc(C(=O)O)cc24)C3=O)cc(C)c1Cl ?
a: 0.45

q: Which GI50 is reported for this compound? Cc1cc(OCCCc2c3n(c4c(-c5c(C)nn(C)c5C)c(Cl)ccc24)[C@H](C)CN(c2c(C)n(C)c4ccc(C(=O)O)cc24)C3=O)cc(C)c1Cl
a: 0.37

q: Recorded GI50 for Cc1cc(OCCCc2c3n(c4c(-c5c(C)nn(C)c5C)c(Cl)ccc24)[C@H](C)CN(c2cn(C)c4ccc(-n5nccn5)nc24)C3=O)cc(C)c1Cl , please?
a: 0.58

q: Please look up its GI50: Cc1cc(OCCCc2c3n(c4c(-c5c(C)nn(C)c5C)c(Cl)ccc24)[C@H](C)CN(c2cc4ccc(C(=O)O)cc4n2C)C3=O)cc(C)c1Cl
a: 1.5

q: Recorded GI50 for Cc1cc(OCCCc2c3n(c4c(-c5c(C)nn(C)c5C)c(Cl)ccc24)[C@H](C)CN(c2cn(CCN4CCOCC4)c4ccc(-c5ncn(-c6ncccn6)n5)cc24)C3=O)cc(C)c1Cl , please?
a: 0.22

q: What measured GI50 goes with Cc1cc(OCCCc2c3n(c4c(-c5c(C)nn(C)c5C)c(Cl)ccc24)[C@H](C)CN(c2cc(COCC4COC4)cc4cc(C(=O)O)n(C)c24)C3=O)cc(C)c1Cl ?
a: 0.39

q: # lookup: GI50 of Cc1cc(OCCCc2c3n(c4c(-c5c(C)ncnc5C)c(Cl)ccc24)[C@H](C)CN(c2cc(OCCN4CCOCC4)cc4cc(C(=O)O)n(C)c24)C3=O)cc(C)c1Cl
a: 0.31

---

- SYSTEM_NAME: UniProtKB Q07820
- PROTOCOL_NOTES: Fluorescence polarization anisotropy (FPA) competition assay, FITC-Bak or FITC-Bim BH3 peptide
- Assay type: binding
- EXPERIMENTAL_CONDITIONS: read-out: Ki for Inhibition of Mcl-1 by FPA assay
Give Ki for every item shown.
Response body: numeric value in nM, unit text excluded.

q: State the recorded Ki for this entry: Cc1cc(OCCCc2c3n(c4c(-c5c(C)nn(C)c5C)c(Cl)ccc24)[C@H](C)CN(c2cn(C)c4ccc(C(=O)NCc5ccncc5)cc24)C3=O)cc(C)c1Cl [Example 284]
a: 3.6

q: Name the recorded Ki for Cc1cc(OCCCc2c3n(c4c(-c5c(C)nn(C)c5C)c(Cl)ccc24)[C@H](C)CN(c2cc(C(C)C)cc4cc(C(=O)O)n(Cc5ccccn5)c24)C3=O)cc(C)c1Cl [Example 359] .
a: 1.4

q: Look at this compound and give its reported Ki. Cc1cc(OCCCc2c3n(c4c(-c5c(C)nn(C)c5C)c(Cl)ccc24)CCCN(c2cc(C(=O)O)c4cn(CCN5CCOCC5)nc4c2)C3=O)cc(C)c1Cl [Example 12]
a: 1.2

q: // query Ki value for entry Cc1cc(OCCCc2c3n(c4c(-c5c(C)nn(C)c5C)c(Cl)ccc24)[C@H](C)CN(c2cccc4cc(C(=O)O)n(CC5CCN(C)C5)c24)C3=O)cc(C)c1Cl (stereo partly shown) [Example 320]
a: 2.7

q: For the compound shown here, Cc1cc(OCCCc2c3n(c4c(-c5c(C)nn(C)c5C)c(Cl)ccc24)[C@H](C)CN(c2ccc4cnoc4c2)C3=O)cc(C)c1Cl [Example 115] , give the reported Ki.
a: 3.1

q: GET /values?readout=Ki&item= Cc1cc(OCCCc2c3n(c4c(-c5c(C)nn(C)c5C)c(Cl)ccc24)[C@H](C)CN(c2cccc4c2cc(C(N)=O)n4C)C3=O)cc(C)c1Cl [Example 266]
a: 9.2

q: Given the compound Cc1cc(OCCCc2c3n(c4c(-c5c(C)nn(CCN6CCCC6)c5C)c(Cl)ccc24)[C@H](C)CN(c2cccc4c2cc(C(=O)O)n4C)C3=O)cc(C)c1Cl [Example 318] , what is its reported Ki?
a: 1.5

q: Which measured Ki value corresponds to Cc1cc(OCCCc2c3n(c4c(-c5c(C)n[nH]c5C)c(Cl)ccc24)CCCN(c2cccc4cccnc24)C3=O)cc(C)c1Cl [Example 150] ?
a: 13

q: Ki lookup needed for Cc1cc(OCCCc2c3n(c4c(-c5c(C)nn(C)c5C)c(Cl)ccc24)[C@H](C)CN(c2cn(C)c4ccc(-c5ncn(CC6CC6)n5)cc24)C3=O)cc(C)c1Cl [Example 462] , thanks.
a: 2

q: // returns reported Ki for input COc1ccc(N2C[C@@H](C)n3c(c(CCCOc4cc(C)c(Cl)c(C)c4)c4ccc(Cl)c(-c5c(C)nn(C)c5C)c43)C2=O)c2c1c(C)c(C(N)=O)n2C [Example 411]
a: 5.6

q: Entry under review: Cc1cc(OCCCc2c3n(c4c(-c5c(C)nn(C)c5C)c(Cl)ccc24)CCCN(c2cc(C(=O)O)c4nnn(C)c4c2)C3=O)cc(C)c1Cl [Example 4] . Reported Ki?
a: 3.3

q: What value of measured Ki is listed for Cc1cc(OCCCc2c3n(c4c(-c5c(C)nn(C)c5C)c(Cl)ccc24)[C@H](C)CN(c2cccc4c2cc(C(=O)O)n4CCN2CCCC2)C3=O)cc(C)c1Cl [Example 369] ?
a: 3.2

---

- SYSTEM_NAME: Mcl-1 (Homo sapiens (Human), UniProt Q07820)
- Sequence (Q07820 172-327): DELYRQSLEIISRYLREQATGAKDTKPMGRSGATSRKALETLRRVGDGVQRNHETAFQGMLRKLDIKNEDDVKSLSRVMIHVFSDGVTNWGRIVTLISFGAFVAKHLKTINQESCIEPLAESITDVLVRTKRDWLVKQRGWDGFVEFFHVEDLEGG
- PROTOCOL_NOTES: Fluorescence polarization anisotropy (FPA) competition assay, FITC-Bak or FITC-Bim BH3 peptide
- Format: binding
- EXPERIMENTAL_CONDITIONS: read-out: Ki for Inhibition of Mcl-1 by FPA assay
Consider the following compounds; for each one, report its Ki.
I only need the number, in nM, no unit after it.

q: Look up Ki: CCn1cc(N2C[C@@H](C)n3c(c(CCCOc4cc(C)c(Cl)c(C)c4)c4ccc(Cl)c(-c5c(C)nn(C)c5C)c43)C2=O)c2cc(C(=O)O)ccc21
a: 1.7

q: Quick check: Ki of Cc1cnc(-c2ccc3c(c2)c(N2C[C@@H](C)n4c(c(CCCOc5cc(C)c(Cl)c(C)c5)c5ccc(Cl)c(-c6c(C)nn(C)c6C)c54)C2=O)cn3C)nc1 ?
a: 2.2

q: What does the record list as Ki for CNC(=O)c1ccc2c(c1)c(N1C[C@@H](C)n3c(c(CCCOc4cc(C)c(Cl)c(C)c4)c4ccc(Cl)c(-c5c(C)nn(C)c5C)c43)C1=O)cn2C ?
a: 3.3

---

- Tested on: H929 human cancer cell lines
- PROTOCOL_NOTES: Cellular viability / proliferation (Cell TiterGlo, 72 h)
- Assay type: cell-based
- EXPERIMENTAL_CONDITIONS: Homo sapiens, NCI-H929, 72 h, read-out: GI50 on cellular proliferation of H929 human cancer cell lines, H929 cells, 72 h, Cell TiterGlo, 10% FBS
REPORTED_PROPERTY: GI50 (nM)
A number alone suffices; assume nM.

q: Which value of GI50 has been reported for Cc1cc(OCCCc2c3n(c4c(-c5c(C)nn(CC6CCN(C)CC6)c5C)c(Cl)ccc24)[C@H](C)CN(c2cccc4c(C(=O)O)cn(C)c24)C3=O)cc(C)c1Cl in the records?
a: 460

q: Bench note: what GI50 did Cc1nn(C)c(C)c1-c1c(Cl)ccc2c(CCCOc3ccc(F)cc3)c3n(c12)[C@H](C)CN(c1cn(C)c2ccc(C(=O)O)cc12)C3=O show?
a: 4000

q: For the compound Cc1cc(OCCCc2c3n(c4c(-c5c(C)nn(C)c5C)c(Cl)ccc24)[C@H](C)CN(c2cn(C)c4ccc(C(=O)Nc5ccccc5)cc24)C3=O)cc(C)c1Cl , what GI50 is on record?
a: 5300

q: # input compound: Cc1cc(OCCCc2c3n(c4c(-c5c(C)nc(CN(C)CCN(C)C)nc5C)c(Cl)ccc24)[C@H](C)CN(c2cn(C)c4ccc(C(=O)O)cc24)C3=O)cc(C)c1Cl ; wanted: its GI50
a: 360

q: I'd like to know its GI50. The compound in question is Cc1cc(OCCCc2c3n(c4c(-c5c(C)nn(C)c5C)c(Cl)ccc24)[C@H](C)CN(c2cccc4c2cc(C(=O)O)n4C)C3=O)cc(C)c1Cl
a: 330

q: # input compound: Cc1cc(OCCCc2c3n(c4c(-c5c(C)nn(C)c5C)c(Cl)ccc24)[C@H](C)CN(c2cn(Cc4cccnc4)c4ccc(C(=O)O)cc24)C3=O)cc(C)c1Cl ; wanted: its GI50
a: 1500

q: Suppose we examine the compound Cc1cc(OCCCc2c3n(c4c(-c5c(C)nn(C)c5C)c(Cl)ccc24)[C@H](C)CN(c2cn(C)c4ccc(C(=O)Nc5ccncc5)cc24)C3=O)cc(C)c1Cl ; what GI50 value has been reported?
a: 1200

q: I am curious: what GI50 value has been reported for Cc1cc(N2C[C@@H](C)n3c(c(CCCOc4cc(C)c(Cl)c(C)c4)c4ccc(Cl)c(-c5c(C)ncnc5C)c43)C2=O)c2c(c1)cc(C(=O)O)n2Cc1ccccn1 ?
a: 240

q: # input compound: Cc1cc(OCCCc2c3n(c4c(-c5c(C)nn(C)c5C)c(Cl)ccc24)[C@H](C)CN(c2cn(C)c4ccc(C5=NCCO5)cc24)C3=O)cc(C)c1Cl ; wanted: its GI50
a: 920

q: I have this compound here, Cc1cc(OCCCc2c3n(c4c(-c5c(C)nn(C)c5C)c(Cl)ccc24)[C@H](C)CN(c2cc(OCC4CC4)cc4cc(C(=O)O)n(C)c24)C3=O)cc(C)c1Cl , and I need its recorded GI50.
a: 410

The reported numbers originate from patent US11596639B2.
